test system: prostate-specific antigen (PSA) mRNA; assay: PSA mRNA levels in LMR20 cells; type: cell-based, human; conditions: LMR20 cells, DHT 10 nM 72 hrs, ASO 0.04 μM
Oligonucleotides are written 5' to 3', each unit as a sugar letter and its base; * is a phosphorothioate linkage, no mark a phosphodiester; rarer units and linkages stand in square brackets, end groups in braces. Plain capitals give the bases only. e = 2'-O-(2-methoxyethyl) (MOE); l = locked nucleic acid (LNA); k = constrained ethyl (cEt); [5mC] = 5-methylcytosine; d = 2'-deoxy (DNA)
Entries and their PSA mRNA levels (% baseline value) after treatment with DHT values follow.
Please report the result as a number followed by the unit.

Memo: 560131 (antisense kT*kT*kG*dA*dT*dT*dT*dA*dA*dT*dG*dG*kT*kT*kG*e[5mC]) [compound 560131] , reported PSA mRNA levels (% baseline value) after treatment with DHT: 74 % baseline value

Memo: 554221 (ACCAAGTTTCTTCAGC; sugars from the 5' end l3 d10 l3, all phosphorothioate, methylation of C not given here) [compound 554221] , reported PSA mRNA levels (% baseline value) after treatment with DHT: 97 % baseline value

Memo: 569236 (antisense eT*kG*kA*kT*dT*dT*dA*dA*dT*dG*dG*kT*kT*kG*e[5mC]*eA) [compound 569236] , reported PSA mRNA levels (% baseline value) after treatment with DHT: 108 % baseline value

---
Memo: 549458 (kG*kT*kT*dG*dA*dT*dT*dT*dA*dA*dT*dG*dG*kT*kT*kG) [compound 549458] , reported PSA mRNA levels (% baseline value) after treatment with DHT: 93 % baseline value
